SYSTEM NAME: RORγ (Homo sapiens)
Construct: expressed in transfected cells; host or cells: 293FT cells (Invitrogen), expression vector pFN26A (Promega)
PROTOCOL TEXT: RORγ GAL4 reporter gene assay
Assay type: cell-based
STUDY CONDITIONS: inhibition of RORγ activity, GAL4-RORγ-LBD luciferase reporter in 293FT cells, overnight incubation; read-out: mean pIC50 (converted)
Here the recorded IC50 is given for each entry.

COc1ccccc1N(C)C(=O)c1ccc(NC(=O)Cc2ccc(S(=O)(=O)CC3CC3)cc2)cc1F [Example 124]
≤ 10 nM
Cc1ccc(N(C(=O)c2ccc(NC(=O)Cc3ccc(S(=O)(=O)CC4CC4)cc3)cc2)C(C)(C)CO)cc1 [Example 153]
≤ 100 nM
COCCN(C(=O)c1ccc(NC(=O)Cc2ccc(S(=O)(=O)CC3CC3)cc2)cc1)C1CC1 [Example 79]
≤ 1000 nM
O=C(Cc1ccc(S(=O)(=O)CC2CC2)cc1)Nc1ccc(C(=O)N2CCCCc3ccccc32)cc1 [Example 63]
≤ 10 nM
O=C(Cc1ccc(S(=O)(=O)CC2CC2)cc1)Nc1ccc(C(=O)N2CCCCC2)cc1 [Example 36]
≤ 1000 nM
CCCN(C(=O)c1ccc(NC(=O)Cc2ccc(S(=O)(=O)NC3CC3)cc2)cc1)c1ccccc1 [Example 22]
≤ 100 nM

Below: the item to evaluate.
Given COc1ccccc1N(C)C(=O)c1ccc(NC(=O)Cc2ccc(S(=O)(=O)CC3CC3)cc2)cc1Cl [Example 125] , state its recorded IC50.
≤ 10 nM

---

SYSTEM NAME: RORγ (Homo sapiens, UniProt P51449)
Construct: expressed in transfected cells; host or cells: 293FT cells (Invitrogen), expression vector pFN26A (Promega)
Sequence (P51449 269-508 limits assumed): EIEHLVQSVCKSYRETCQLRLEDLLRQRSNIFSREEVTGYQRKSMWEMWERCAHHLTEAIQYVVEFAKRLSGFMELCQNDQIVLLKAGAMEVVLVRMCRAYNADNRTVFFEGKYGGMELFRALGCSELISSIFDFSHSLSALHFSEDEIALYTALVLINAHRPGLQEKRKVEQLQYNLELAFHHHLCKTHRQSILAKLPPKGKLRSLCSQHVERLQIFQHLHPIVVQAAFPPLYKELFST
PROTOCOL TEXT: RORγ GAL4 reporter gene assay
Type: cell-based
STUDY CONDITIONS: inhibition of RORγ activity, GAL4-RORγ-LBD luciferase reporter in 293FT cells, overnight incubation; read-out: mean pIC50 (converted)
Here the recorded IC50 is given for each entry.

See these solved cases before continuing.
CCCN(C(=O)c1ccc(NC(=O)Cc2ccc(S(=O)(=O)CC3CC3)cc2)cc1)c1cccnc1
≤ 10 nM
CCCN(C(=O)c1ccc(NC(=O)Cc2ccc(S(=O)(=O)NC3CC3)cc2)cc1)c1cc(C)nn1C
≤ 10 nM
CN(C(=O)c1ccc(NC(=O)Cc2ccc(S(=O)(=O)CC3CC3)cc2)cc1)C(C)(C)C
≤ 1000 nM
O=C(Cc1ccc(S(=O)(=O)CC2CC2)cc1)Nc1ccc(C(=O)N(c2ccccc2)c2ccc(Br)cc2)cc1
≤ 100 nM
O=C(Cc1ccc(S(=O)(=O)NC2CC2)cc1)Nc1ccc(C(=O)N(CC(F)(F)F)c2ccccc2)cc1
≤ 10 nM

Given `C=CCN(CC=C)C(=O)c1ccc(NC(=O)Cc2ccc(S(=O)(=O)CC3CC3)cc2)cc1` , state its recorded IC50.
≤ 100 nM

Then what about the compound `CC(C)CN(C(=O)c1ccc(NC(=O)Cc2ccc(S(=O)(=O)CC3CC3)cc2)cc1)c1ccccc1` ?
≤ 10 nM

---

SYSTEM NAME: RORγ (Homo sapiens)
Construct: expressed in transfected cells; host or cells: 293FT cells (Invitrogen), expression vector pFN26A (Promega)
Sequence (P51449 269-508 limits assumed): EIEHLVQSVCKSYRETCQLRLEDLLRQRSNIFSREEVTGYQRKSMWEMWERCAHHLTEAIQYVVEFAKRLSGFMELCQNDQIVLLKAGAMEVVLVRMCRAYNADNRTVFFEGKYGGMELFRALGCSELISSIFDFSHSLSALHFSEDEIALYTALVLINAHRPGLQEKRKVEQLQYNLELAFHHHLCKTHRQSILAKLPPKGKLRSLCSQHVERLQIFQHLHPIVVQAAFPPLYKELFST
PROTOCOL TEXT: RORγ GAL4 reporter gene assay
Assay type: cell-based
STUDY CONDITIONS: inhibition of RORγ activity, GAL4-RORγ-LBD luciferase reporter in 293FT cells, overnight incubation; read-out: mean pIC50 (converted)
OBSERVED PROPERTY: IC50

CCN(C(=O)c1ccc(NC(=O)Cc2ccc(S(=O)(=O)CC3CC3)cc2)cc1Cl)c1ccccc1
≤ 100 nM
O=C(Cc1ccc(S(=O)(=O)CC2CC2)cc1)Nc1ccc(C(=O)N2CCc3ccccc32)cc1
≤ 1000 nM
CCN(C(=O)c1ccc(NC(=O)Cc2ccc(S(=O)(=O)CC3CC3)cc2)cc1)c1cccc(C)c1
≤ 10 nM

Below: the item to evaluate.
Given CCOC(=O)c1csc(C2CCCN2C(=O)c2ccc(NC(=O)Cc3ccc(S(=O)(=O)CC4CC4)cc3)cc2)n1 (stereo not shown) , state its recorded IC50.
≤ 1000 nM

---

SYSTEM NAME: RORγ (Homo sapiens, UniProt P51449)
Construct: expressed in transfected cells; host or cells: 293FT cells (Invitrogen), expression vector pFN26A (Promega)
Sequence (P51449 269-508 limits assumed): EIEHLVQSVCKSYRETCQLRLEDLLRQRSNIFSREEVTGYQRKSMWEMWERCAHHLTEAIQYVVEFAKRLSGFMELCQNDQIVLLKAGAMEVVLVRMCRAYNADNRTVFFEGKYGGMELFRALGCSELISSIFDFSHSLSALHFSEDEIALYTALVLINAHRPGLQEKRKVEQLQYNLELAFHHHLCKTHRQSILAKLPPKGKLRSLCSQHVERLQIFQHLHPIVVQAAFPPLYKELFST
PROTOCOL TEXT: RORγ GAL4 reporter gene assay
Type: cell-based
STUDY CONDITIONS: inhibition of RORγ activity, GAL4-RORγ-LBD luciferase reporter in 293FT cells, overnight incubation; read-out: mean pIC50 (converted)
Here the recorded IC50 is given for each entry.

See these solved cases before continuing.
Cc1cccc(C)c1NC(=O)c1ccc(NC(=O)Cc2ccc(S(=O)(=O)CC3CC3)cc2)cc1
≤ 100 nM
Cc1ccc(N(C(=O)c2ccc(NC(=O)Cc3ccc(S(=O)(=O)CC4CC4)nc3)cc2)C(C)(C)CO)cc1
≤ 100 nM
O=C(Cc1ccc(S(=O)(=O)CC2CC2)cc1)Nc1ccc(C(=O)N2CCCc3ccccc32)cc1
≤ 10 nM

Given `COc1ccccc1N(C)C(=O)c1ccc(NC(=O)Cc2ccc(S(=O)(=O)CC3CC3)cc2)cc1C` , state its recorded IC50.
≤ 10 nM

---

Here the recorded IC50 is given for each entry.
SYSTEM NAME: RORγ (Homo sapiens)
Construct: expressed in transfected cells; host or cells: 293FT cells (Invitrogen), expression vector pFN26A (Promega)
PROTOCOL TEXT: RORγ GAL4 reporter gene assay
Assay type: cell-based
STUDY CONDITIONS: inhibition of RORγ activity, GAL4-RORγ-LBD luciferase reporter in 293FT cells, overnight incubation; read-out: mean pIC50 (converted)

See these solved cases before continuing.
CC(C)CN(C)C(=O)c1ccc(NC(=O)Cc2ccc(S(=O)(=O)CC3CC3)cc2)cc1
≤ 1000 nM
CCN(C(=O)c1ccc(NC(=O)Cc2ccc(S(=O)(=O)NC3CC3)cc2)cc1)c1ccc(C)cc1
≤ 10 nM
O=C(Cc1ccc(S(=O)(=O)NC2CC2)cc1)Nc1ccc(C(=O)N2CCCCC2c2ccccc2)cc1 (stereo not shown)
≤ 100 nM

Given `CCN(C(=O)c1ccc(NC(=O)Cc2ccc(S(=O)(=O)CC3CC3)nc2)cc1Cl)c1ccccc1` , state its recorded IC50.
≤ 100 nM

---

Here the recorded IC50 is given for each entry.
SYSTEM NAME: RORγ (Homo sapiens, UniProt P51449)
Construct: expressed in transfected cells; host or cells: 293FT cells (Invitrogen), expression vector pFN26A (Promega)
PROTOCOL TEXT: RORγ GAL4 reporter gene assay
Format: cell-based
STUDY CONDITIONS: inhibition of RORγ activity, GAL4-RORγ-LBD luciferase reporter in 293FT cells, overnight incubation; read-out: mean pIC50 (converted)
Protocol: Example inhibitors 1-166 were tested for their ability to inhibit RORγ activity in a RORγ GAL4 reporter gene assay. The assay procedure and results are described below. RORγ GAL4 Reporter Gene Assay Description A GAL4 one-hybrid reporter system employing luciferase readout was established to determine inhibition of RORγ in 293FT cells. […] For compound screening, the cells were harvested (as described above) and counted. […]

See these solved cases before continuing.
CCN(C(=O)c1ccc(NC(=O)Cc2ccc(S(=O)(=O)CC3CC3)cc2)c(Cl)c1)c1ccccc1
≤ 0.1 µM
CCN(C(=O)c1ccc(NC(=O)Cc2ccc(S(=O)(=O)CC3CC3)cc2)cc1F)c1cccc(C)c1C
≤ 0.01 µM
O=C(Cc1ccc(S(=O)(=O)CC2CC2)cc1)Nc1ccc(C(=O)Nc2c(Cl)cccc2Cl)cc1
≤ 1 µM
CC(C)(CO)N(C(=O)c1ccc(NC(=O)Cc2ccc(S(=O)(=O)CC3CC3)cc2)cc1)c1ccccc1
≤ 0.1 µM

Given `CCN(C(=O)c1ccc(NC(=O)Cc2ccc(S(=O)(=O)CC3CC3)cc2)cc1)c1cccc(C(=O)OC)c1` , state its recorded IC50.
≤ 0.1 µM

Then what about the molecule `COC(=O)C(C)(C)N(C(=O)c1ccc(NC(=O)Cc2ccc(S(=O)(=O)CC3CC3)cc2)cc1)c1ccccc1` ?
≤ 0.01 µM
